All figures here come from the supplement of paper PMC10949913.

Tested on: NCI-H295R
Experiment: AC50 viability; higher = less potent
Details: 48 h
Hi all, reminder that labels come from AC50 viability, split as low end (below 4 µM), middle (4 µM to below 10 µM), high end (10 µM or more)

# bin lookup: classify Cc1cccc(CN2CCN(C(c3ccccc3)c3ccc(Cl)cc3)CC2)c1 (stereo not drawn) by its AC50 viability
high end

Classify this compound: `CCOc1ccc(Nc2nc(-c3c(C)nc4ccccn34)cs2)cc1`
low end

Assign a category based on measured AC50 viability for `C#Cc1cccc(Nc2ncnc3cc(OC)c(OCCCCCCC(=O)NO)cc23)c1` and give only the class name.
middle

Where would `CC1(C)OCCn2c1nc1c(N3CCOCC3)nc(-c3cnc(N)nc3)nc12` land among the classes by reported AC50 viability?
low end

State the class of the compound shown: `CCN(CC)C(=O)C1=CC=C(C=C1)C/2=C/C3(CCNCC3)OC4=CC=CC(=C24)O`
high end

Exercise: read the entry `COc1ccc(-c2c(-c3ccc(O)cc3O)n[nH]c2C)cc1` and state which class it falls under.
low end

Class for `COC(=O)Nc1ccc(-c2nc(N3CCOCC3)c3cnn(C4CCN(C(=O)OC)CC4)c3n2)cc1` ?
low end

// bin(item) where item = Cc1c(O)cccc1C(=O)NC(CSc1ccccc1)C(O)CN1CC2CCCCC2CC1C(=O)NC(C)(C)C (stereo not drawn)
high end

Which category fits this record: CC[C@@H]([C@H](C)O)N1\N=C/N(C1=O)C2=CC=C(C=C2)N3CCN(CC3)C4=CC=C(OCC5CO[C@@](C5)(C[N]6C=NC=N6)C7=C(F)C=C(F)C=C7)C=C4 (stereo partly drawn)
middle

Pick a category. Item: `COC[C@H](NC(=O)c1cnc(C)s1)C(=O)N[C@@H](COC)C(=O)N[C@@H](Cc1ccccc1)C(=O)[C@@]1(C)CO1`
low end

Lab log: `COc1cccc2c1C(=O)c1c(O)c3c(c(O)c1C2=O)C[C@@](O)(C(=O)CO)C[C@@H]3O[C@H]1C[C@H](N)[C@H](O[C@H]2CCCCO2)[C@H](C)O1` — assign AC50 viability category
high end

Assign a category based on measured AC50 viability for `O=C(CCCCCCC(=O)Nc1cccnc1)NO` and give only the class name.
high end

The entry to classify is `C[C@H](CN(C)C)Oc1nc(Nc2cc3cccc(Cl)c3cn2)cnc1C#N` ; which class holds it?
high end

Pick a category. Item: `COc1ccc(-c2oc3ncnc(N)c3c2-c2ccc(NC(=O)Nc3cc(C(F)(F)F)ccc3F)cc2)cc1`
high end

Which bin should I file `Cc1[nH]c2ccccc2c1CCNCc1ccc(/C=C/C(=O)NO)cc1` under?
middle

State the class of the compound shown: `Cc1cc(-c2nc3cc(F)ccc3s2)ccc1NC(=O)[C@@H](N)CCCCN`
high end

Please indicate the class for `COC1=C(OCCCN2CCOCC2)C=C3N=CC=C(OC4=CC=C(C=C4F)\C5=C\N=C(\NC6=CC=C(F)C=C6)N(C)C5=O)C3=C1` based on its AC50 viability.
middle

Exam item: assign `Nc1ccc(F)cc1NC(=O)c1ccc(CNC(=O)/C=C/c2cccnc2)cc1` to the correct category.
middle

Looking at Cn1ncc(Cl)c1-c1cc(C(=O)NC(CN)Cc2ccc(F)c(F)c2)oc1Cl (stereo not drawn) , which class would you pick?
middle

GET /class?item= `Cc1cc(OCCCc2c3n(c4c(-c5c(C)nn(C)c5C)c(Cl)ccc24)[C@H](C)CN(c2cn(C)c4ccc(C(=O)O)cc24)C3=O)cc(C)c1Cl`
low end

Sort Cc1nc(NC(=O)N2CCCC2C(N)=O)sc1-c1ccnc(C(C)(C)C(F)(F)F)c1 (stereo not drawn) into one of the categories.
high end

Exam item: assign `Oc1ccc(Nc2nc(-c3ccc(Cl)cc3)cs2)cc1` to the correct category.
high end

Each compound maps to one class by AC50 viability. Which class for `CC(=O)c1ccc2c(c1)c1cc(C(C)=O)ccc1n2CCNC(C)C` ?
low end

Would you mind sorting `C=CC(=O)Nc1cccc(Oc2nc(Nc3ccc(N4CCN(C)CC4)cc3)nc3ccsc23)c1` into the appropriate category?
middle

State the band of `COc1ccc(C(=O)c2c(C)n(CCN3CCOCC3)c3cc(I)ccc23)cc1`
middle

Given `COCc1c(-c2ccc(NC(=O)Nc3cc(C(F)(F)F)ccc3F)c(F)c2)c2c(N)ncnn2c1CN1CCOCC1` , name the class its AC50 viability places it in.
middle

Using the reported AC50 viability, which band applies to `COC1=CC=C2[N](CCCN(C)C)C=C(C2=C1)C/3=C(/C(=O)NC3=O)C4=C[NH]C5=C4C=CC=C5` ?
high end

Which of the defined bands does the recorded AC50 viability of `Cc1ncc(NC(=O)c2ccc(CN3CCN(C)CC3)c(C(F)(F)F)c2)cc1Nc1nccc(-c2cccnc2)n1` sit within?
high end

Given `O=C(/C=C/c1cccnc1)NCCCCC1CCN(C(=O)c2ccccc2)CC1` , name the class its AC50 viability places it in.
low end

GET /class?item= `O=C(/C=C/c1ccc(CN(CCO)CCc2c[nH]c3ccccc23)cc1)NO`
low end

Lab note: which band did `CC[C@H](CC#N)OC(=O)N[C@@H](C)c1cccc(NC(=O)Nc2ccc(-c3cnco3)c(OC)c2)c1` land in?
low end

Bin this entry: `CCN(CC)CCNC(=O)c1ccc2nc(-c3ccccc3)c(-c3ccc(CN4CCC(n5c(=O)[nH]c6ccccc65)CC4)cc3)nc2c1`
middle

Given `CCN1CCN(Cc2ccc(NC(=O)Nc3ccc(Oc4cc(NC)ncn4)cc3)cc2C(F)(F)F)CC1` , name the class its AC50 viability places it in.
high end

====

Would you mind telling me the reported AC50 viability of each entry?
System: CU-ACC2
Assay: AC50 viability; higher = less potent
Conditions: 48 h
Respond with a number, then the unit of measure.

Fill in reported AC50 viability for this entry: `CNc1nc(-c2ccc3c(N)n[nH]c3c2)cc(N2C[C@@H](C(=O)NC3CCCCC3)CC[C@H]2C)n1`
20900 nM

Fill in AC50 viability for record `CO[C@H]1/C=C\C=C(\C)C(=O)NC2=CC(=O)C(NCCN(C)C)=C(C[C@@H](C)C[C@H](OC)[C@H](O)[C@@H](C)/C=C(/C)[C@@H]1OC(N)=O)C2=O`
833 nM

Please give measured AC50 viability of the following entry: `CN1CCN(Cc2ccc(NC(=O)Nc3ccc(Oc4cc(NC(=O)C5CC5)ncn4)cc3)cc2C(F)(F)F)CC1`
468 nM

In one line, give reported AC50 viability of the entry `C[C@]12Cc3cn[nH]c3C[C@@H]1CC[C@@H]1[C@@H]2CC[C@@]2(C)[C@H]1CC[C@]2(C)O` .
263 nM

# return recorded AC50 viability for input `COCCn1c2c([n+](Cc3cnccn3)c1C)C(=O)c1ccccc1C2=O`
132 nM

Indicate the recorded AC50 viability value for this compound: `CNCc1ccc(-c2[nH]c3cc(F)cc4c3c2CCNC4=O)cc1`
26300 nM

Retrieve AC50 viability measured for `C[C@H](NC(=O)C(=O)Nc1ccccc1C(C)(C)C)C(=O)N[C@@H](CC(=O)O)C(=O)COc1c(F)c(F)cc(F)c1F` and print it.
661 nM

====

So I've got a bunch of molecules here, and I need their area under concentration-response curve values.
System: CU-ACC1
Test: area under concentration-response curve (viability) (AUC (a.u.)); higher = less active
Conditions: 48 h
Enter a number only.

Supply recorded area under concentration-response curve for `C[C@@H]\1COC(=N1)\NC2=CC3=C(C=C2)N=CN=C3NC4=CC(=C(OCC5=NC=CS5)C=C4)Cl` here.
509

Identify measured area under concentration-response curve associated with `O=C(NCCO[N+](=O)[O-])c1cccnc1`
566

Recall and state the measured area under concentration-response curve for `COC1=CC2=C(OC\C(=C2\C3=CC=C(F)C=C3)CN4CCCC4)C=C1` .
500

In one line, give reported area under concentration-response curve of the entry `NC(=O)N1CCC(CC(=O)N2CCC([C@H]3c4ncc(Br)cc4CCc4cc(Cl)cc(Br)c43)CC2)CC1` .
440

Complete the entry with area under concentration-response curve for `O=[S+]([O-])(F)Cc1ccccc1`
510

Given the molecule `O=C(CBr)N1CC([N+](=O)[O-])([N+](=O)[O-])C1` , write its reported area under concentration-response curve.
454

Query area under concentration-response curve for `CCCNC(=O)Nc1ccc(Oc2ncnc3cc(OC)c(OC)cc23)cc1Cl`
332

Complete the entry with area under concentration-response curve for `Cc1ccc(-c2ccc3ncc4c(c3n2)n(C2CCN(C(=O)[C@H](C)O)CC2)c(=O)n4C)cn1`
363

# return recorded area under concentration-response curve for entry `CNC(=O)c1cc(Oc2ccc3nc(N[C@@H]4CCCC[C@H]4O)sc3c2)ccn1`
481

====

System: CU-ACC1
Experiment: area under concentration-response curve (viability) (AUC (a.u.)); higher = less active
Details: 48 h
Quick rule: area under concentration-response curve of at least 500 means true (1), below that means false (0).

Does area under concentration-response curve meet or surpass 500 for `CC(C)N1C(=O)NC(=C/C1=O)\N[C@@H](C)C2=CC=CC=C2` ?
false (0)

Could you tell me if the measured area under concentration-response curve of `COc1cc(N2CCC(N3CCN(C)CC3)CC2)ccc1Nc1ncc(Cl)c(Nc2ccccc2[S+](=O)([O-])C(C)C)n1` reaches 500 or more?
false (0)

Could you tell me if the measured area under concentration-response curve of CC(C)C(C)/C=C/C(C)C1CCC2C3=CC=C4CC(O)CCC4(C)C3CCC21C (configuration not stated) reaches 500 or more?
true (1)

Reported area under concentration-response curve at or above 500? CN1C(=O)C(Cc2c[nH]c3ccccc23)NC1=S (configuration not stated)
true (1)

Check if area under concentration-response curve >= 500 (inclusive). Item: `CCOC(=N)c1nc2ccc3ncnc(Nc4cc(F)c(F)cc4Cl)c3c2s1`
false (0)

State whether the measured area under concentration-response curve reaches 500, counting equality as reaching it, for `C=CC(=O)N1CCC[C@H](n2c(=O)n(-c3ccc(Oc4ccccc4)cc3)c3c(N)ncnc32)C1`
false (0)

hey, is area under concentration-response curve for this one >= 500? `COc1cc2c(cc1OC)CN(CCc1ccc(NC(=O)c3cc(OC)c(OC)cc3NC(=O)c3cnc4ccccc4c3)cc1)CC2`
true (1)

Confirm if area under concentration-response curve reported for the compound `O=C(NC[C@H](O)CO)c1ccncc1Nc1ccc(I)cc1F` is 500 or above.
false (0)

Item `O=C(NCCCCN1CCOCC1)c1cc2ccccc2o1` with area under concentration-response curve of 500 or above?
false (0)

In plain terms: is recorded area under concentration-response curve at least 500 for `C[C@H](Nc1ncnc2[nH]cnc12)c1cc2ccc(F)cc2nc1-c1ccccn1` ?
false (0)

Reported area under concentration-response curve at or above 500? COC1=CC=C(C=C1)C2=NC3=CC(=CC=C3[NH]2)/C4=N/NC(=O)CC4C (configuration not stated)
true (1)

Hi, just wondering whether `CC[C@H]1OC(=O)[C@H](C)C(=O)[C@H](C)[C@@H](O[C@H]2O[C@H](C)C[C@H](N(C)C)[C@H]2O)[C@](C)(OC)C[C@@H](C)C(=O)[C@H](C)[C@H]2N(CCCCn3cnc(-c4cccnc4)c3)C(=O)O[C@]12C` shows area under concentration-response curve of 500 or higher.
false (0)
